This collection of values is drawn from ChEMBL document CHEMBL4888484.

# System: Plasmodium falciparum
# ASSAY_PROTOCOL: Confirmatory screen in NF54 nanoGlo assay, in single point, at 2uM, 72h
# Format: functional, Erythrocyte
# CONDITION_DETAILS: timepoint 72 hour
Among all 4,800 compounds or so, about 420 (8.8%) showed an effect of 50% or more. The sample as a whole holds a higher share of strong results than the screen did.
PARAMETER: % Inhibition (%)

COMPOUND | UNIT_ABBREVIATION | VALUE
Cc1ccc(C(=O)C[n+]2cc(-c3ccc(-c4ccccc4)cc3)n(C)c2N)cc1 | % | 4
O=C(Nc1cnc2ccccc2c1)c1ccccc1C(=O)c1ccc(F)cc1 | % | 96
CC1(C)C2CCC13CS(=O)(=O)N=C3C2 (configuration not stated) | % | 3
COC1(C)CC(NC(=O)C(C(C)C)N2CCCS2(=O)=O)C1(C)C (configuration not stated) | % | -9
CC(C)(C)c1ccc(-c2ccc(C(=O)NCC3(O)CCOCC3)o2)cc1 | % | 0
CC1CN(C(=O)COc2ccc3oc4ccccc4c3c2)CC(C)O1 (configuration not stated) | % | -3
O=C(CNC(=O)OCc1ccccc1)Nc1ccc(F)cc1 | % | -12
CN(Cc1cc(C(F)(F)F)ccc1Cl)[C@H]1CCc2nn(C)c(=O)n2CC1 | % | -8
Cc1nc2ccccc2n1C(=O)c1sc2ccccc2c1Cl | % | -1
COc1cccc(-c2cc(C(=O)Nc3ccc(F)c(Cl)c3)c3c(C)nn(C)c3n2)c1 | % | -4
COc1ncccc1C(=O)NC[C@H](C)S(N)(=O)=O | % | 4
O=C(Nc1cc(NC(=O)c2ccc(F)cc2)cc(Oc2cccnc2)c1)c1ccc(F)cc1 | % | -1
COc1ccc(-c2cc(C(F)(F)F)nc(-n3nc(-c4cccc(OC)c4)c(Cl)c3-c3cccc(OC)c3)n2)cc1 | % | 84
COc1cccc(-c2cc(C(=O)Nc3cc(Cl)ccc3C)c3c(C)nn(C)c3n2)c1 | % | -15
Cc1nnc(NC(=O)c2cc(N3CCCC3)ncn2)s1 | % | 14
CCCC1(c2ccncc2)CC(C)OC1=O (configuration not stated) | % | -1
COc1cccc(-c2cc(C(=O)N3CCCN(C(=O)c4cc(-c5cccc(OC)c5)nc5ccccc45)CC3)c3ccccc3n2)c1 | % | -1
Cn1c(CCNC(=O)CCc2cccnc2)nc2cc(Cl)ccc21 | % | -3
O=C(COc1ccc(Cl)cc1)n1c2ccccc2c2ccccc21 | % | -3
CCOc1ccccc1NC(=O)Cc1c(C)nc2nc(-c3cccnc3)nn2c1C | % | 0
Fc1cccc(F)c1CNC[C@@H]1NCCc2ccccc21 | % | -5
Cc1ccc(C)c(NC(=O)CN2CCC3(CC2)NC(c2ccc(OC(F)(F)F)cc2)=NO3)c1 | % | -3
